- Test system: HCC-44
- assay name: relative viability (nuclei count vs DMSO), 5 days (fraction); higher = more cells survive
- measurement conditions: first compound 0.02 µM
Measured relative viability by item

Completed entries (count: 5):
| compound | value |
| --- | --- |
| CC(=O)O[C@@]12CO[C@@H]1C[C@H](O)[C@@]1(C)C(=O)[C@H](O)C3=C(C)[C@@H](OC(=O)[C@H](O)[C@@H](NC(=O)OC(C)(C)C)c4ccccc4)C[C@@](O)([C@@H](OC(=O)c4ccccc4)[C@H]21)C3(C)C [Docetaxel] + O=C(c1cc(Cc2n[nH]c(=O)c3ccccc23)ccc1F)N1CCN(C(=O)C2CC2)CC1 [Olaparib] (partner 8 µM) | 0.616 |
| CC(=O)O[C@@]12CO[C@@H]1C[C@H](O)[C@@]1(C)C(=O)[C@H](O)C3=C(C)[C@@H](OC(=O)[C@H](O)[C@@H](NC(=O)OC(C)(C)C)c4ccccc4)C[C@@](O)([C@@H](OC(=O)c4ccccc4)[C@H]21)C3(C)C [Docetaxel] + O=C(CCCCCCC(=O)Nc1ccccc1)NO [Vorinostat] (partner 1 µM) | 0.493 |
| CC(=O)O[C@@]12CO[C@@H]1C[C@H](O)[C@@]1(C)C(=O)[C@H](O)C3=C(C)[C@@H](OC(=O)[C@H](O)[C@@H](NC(=O)OC(C)(C)C)c4ccccc4)C[C@@](O)([C@@H](OC(=O)c4ccccc4)[C@H]21)C3(C)C [Docetaxel] + CC(C)C[C@H](NC(=O)[C@H](Cc1ccccc1)NC(=O)c1cnccn1)B(O)O [Bortezomib] (partner 0.002 µM) | 0.149 |
| CC(=O)O[C@@]12CO[C@@H]1C[C@H](O)[C@@]1(C)C(=O)[C@H](O)C3=C(C)[C@@H](OC(=O)[C@H](O)[C@@H](NC(=O)OC(C)(C)C)c4ccccc4)C[C@@](O)([C@@H](OC(=O)c4ccccc4)[C@H]21)C3(C)C [Docetaxel] + Nc1ncn([C@H]2C[C@H](O)[C@@H](CO)O2)c(=O)n1 [Decitabine] (partner 2 µM) | 0.566 |
| CC(=O)O[C@@]12CO[C@@H]1C[C@H](O)[C@@]1(C)C(=O)[C@H](O)C3=C(C)[C@@H](OC(=O)[C@H](O)[C@@H](NC(=O)OC(C)(C)C)c4ccccc4)C[C@@](O)([C@@H](OC(=O)c4ccccc4)[C@H]21)C3(C)C [Docetaxel] + NC(=O)Nc1cc(-c2cccc(F)c2)sc1C(=O)N[C@H]1CCCNC1 [AZD7762] (partner 0.2 µM) | 0.497 |

Turning to the following compound.
Returns the measured relative viability for the input compound. Input: CC(=O)O[C@@]12CO[C@@H]1C[C@H](O)[C@@]1(C)C(=O)[C@H](O)C3=C(C)[C@@H](OC(=O)[C@H](O)[C@@H](NC(=O)OC(C)(C)C)c4ccccc4)C[C@@](O)([C@@H](OC(=O)c4ccccc4)[C@H]21)C3(C)C [Docetaxel] + N=C(N)NC(=N)NCCc1ccccc1 [Phenformin] (partner 250 µM)
0.0735

----------
- System: ABC-1
- assay name: relative viability (nuclei count vs DMSO), 5 days (fraction); higher = more cells survive
- measurement conditions: first compound 0.0002 µM
measured quantity: relative viability
Answer with a bare number; do not write a unit.

| compound | assay system | relative viability |
| --- | --- | --- |
| CC(=O)O[C@@]12CO[C@@H]1C[C@H](O)[C@@]1(C)C(=O)[C@H](O)C3=C(C)[C@@H](OC(=O)[C@H](O)[C@@H](NC(=O)OC(C)(C)C)c4ccccc4)C[C@@](O)([C@@H](OC(=O)c4ccccc4)[C@H]21)C3(C)C [Docetaxel] + O=C(CCCCCCC(=O)Nc1ccccc1)NO [Vorinostat] (partner 1 µM) | ABC-1 | 1.13 |
| CC(=O)O[C@@]12CO[C@@H]1C[C@H](O)[C@@]1(C)C(=O)[C@H](O)C3=C(C)[C@@H](OC(=O)[C@H](O)[C@@H](NC(=O)OC(C)(C)C)c4ccccc4)C[C@@](O)([C@@H](OC(=O)c4ccccc4)[C@H]21)C3(C)C [Docetaxel] + Nc1ncn([C@H]2C[C@H](O)[C@@H](CO)O2)c(=O)n1 [Decitabine] (partner 2 µM) | ABC-1 | 1.04 |

Turning to the following compound.
Returns the measured relative viability for the input compound. Input: CC(=O)O[C@@]12CO[C@@H]1C[C@H](O)[C@@]1(C)C(=O)[C@H](O)C3=C(C)[C@@H](OC(=O)[C@H](O)[C@@H](NC(=O)OC(C)(C)C)c4ccccc4)C[C@@](O)([C@@H](OC(=O)c4ccccc4)[C@H]21)C3(C)C [Docetaxel] + CS(=O)(=O)N1CCN(Cc2cc3nc(-c4cccc5[nH]ncc45)nc(N4CCOCC4)c3s2)CC1 [Pictilisib] (partner 1 µM)
0.772

----------
- Test system: NCI-H2342
- assay name: relative viability (nuclei count vs DMSO), 5 days (fraction); higher = more cells survive
- measurement conditions: first compound 0.01581 µM
Measured relative viability by item
Answer with a bare number; do not write a unit.

| compound | relative viability |
| --- | --- |
| COc1cc2nccc(Oc3ccc(NC(=O)Nc4cc(C)on4)c(Cl)c3)c2cc1OC [Tivozanib] + Cc1nc(Nc2ncc(C(=O)Nc3c(C)cccc3Cl)s2)cc(N2CCN(CCO)CC2)n1 [Dasatinib] (partner 0.075 µM) | 0.333 |
| COc1cc2nccc(Oc3ccc(NC(=O)Nc4cc(C)on4)c(Cl)c3)c2cc1OC [Tivozanib] + COc1cccc2cc(-c3nc([C@H]4CC[C@H](C(=O)O)CC4)n4ncnc(N)c34)[nH]c12 [OSI-027] (partner 0.5 µM) | 0.556 |
| Nc1ccn([C@@H]2O[C@H](CO)[C@@H](O)[C@@H]2O)c(=O)n1 [Cytarabine] + NC(=O)Nc1cc(-c2cccc(F)c2)sc1C(=O)N[C@H]1CCCNC1 [AZD7762] (partner 0.2 µM) | 0.385 |

Returns the measured relative viability for the input compound. Input: Nc1ccn([C@@H]2O[C@H](CO)[C@@H](O)[C@@H]2O)c(=O)n1 [Cytarabine] + Nc1ncn([C@H]2C[C@H](O)[C@@H](CO)O2)c(=O)n1 [Decitabine] (partner 2 µM)
0.702

// same read-out, input: Nc1ccn([C@@H]2O[C@H](CO)[C@@H](O)[C@@H]2O)c(=O)n1 [Cytarabine] + COc1cc2c(Oc3ccc(NC(=O)C4(C(=O)Nc5ccc(F)cc5)CC4)cc3F)ccnc2cc1OCCCN1CCOCC1 [Foretinib] (partner 0.25 µM)
0.887

----------
- Tested on: SW 900
- assay name: relative viability (nuclei count vs DMSO), 5 days (fraction); higher = more cells survive
- measurement conditions: first compound 0.02 µM
Measured relative viability by item

| compound | value |
| --- | --- |
| CC(=O)O[C@@]12CO[C@@H]1C[C@H](O)[C@@]1(C)C(=O)[C@H](O)C3=C(C)[C@@H](OC(=O)[C@H](O)[C@@H](NC(=O)OC(C)(C)C)c4ccccc4)C[C@@](O)([C@@H](OC(=O)c4ccccc4)[C@H]21)C3(C)C [Docetaxel] + CC(=O)c1c(C)c2cnc(Nc3ccc(N4CCNCC4)cn3)nc2n(C2CCCC2)c1=O [Palbociclib] (partner 0.5 µM) | 0.264 |
| CC(=O)O[C@@]12CO[C@@H]1C[C@H](O)[C@@]1(C)C(=O)[C@H](O)C3=C(C)[C@@H](OC(=O)[C@H](O)[C@@H](NC(=O)OC(C)(C)C)c4ccccc4)C[C@@](O)([C@@H](OC(=O)c4ccccc4)[C@H]21)C3(C)C [Docetaxel] + N=C(N)NC(=N)NCCc1ccccc1 [Phenformin] (partner 250 µM) | 0.0976 |

Turning to the following compound.
relative viability of CC(=O)O[C@@]12CO[C@@H]1C[C@H](O)[C@@]1(C)C(=O)[C@H](O)C3=C(C)[C@@H](OC(=O)[C@H](O)[C@@H](NC(=O)OC(C)(C)C)c4ccccc4)C[C@@](O)([C@@H](OC(=O)c4ccccc4)[C@H]21)C3(C)C [Docetaxel] + Nc1nc2[nH]cc(CCc3ccc(C(=O)N[C@@H](CCC(=O)O)C(=O)O)cc3)c2c(=O)[nH]1 [Pemetrexed] (partner 0.2 µM) on SW 900?
0.24

----------
- Test system: NCI-H1993
- assay name: relative viability (nuclei count vs DMSO), 5 days (fraction); higher = more cells survive
- measurement conditions: first compound 1.265 µM
Label key: 1 (yes) means relative viability under 0.6; 0 (no) means relative viability of 0.6 or more.

Please review the following examples before continuing.
| molecule | class name |
| --- | --- |
| Cc1sc2c(c1C)C(c1ccc(Cl)cc1)=N[C@@H](CC(=O)OC(C)(C)C)c1nnc(C)n1-2 [JQ1] + Nc1nc2[nH]cc(CCc3ccc(C(=O)N[C@@H](CCC(=O)O)C(=O)O)cc3)c2c(=O)[nH]1 [Pemetrexed] (partner 0.2 µM) | 1 (yes) |
| Cc1sc2c(c1C)C(c1ccc(Cl)cc1)=N[C@@H](CC(=O)OC(C)(C)C)c1nnc(C)n1-2 [JQ1] + O=C(CCCCCCC(=O)Nc1ccccc1)NO [Vorinostat] (partner 1 µM) | 1 (yes) |
| Cc1sc2c(c1C)C(c1ccc(Cl)cc1)=N[C@@H](CC(=O)OC(C)(C)C)c1nnc(C)n1-2 [JQ1] + CCNC(=O)c1noc(-c2cc(C(C)C)c(O)cc2O)c1-c1ccc(CN2CCOCC2)cc1 [Luminespib] (partner 0.01 µM) | 0 (no) |
| Cc1sc2c(c1C)C(c1ccc(Cl)cc1)=N[C@@H](CC(=O)OC(C)(C)C)c1nnc(C)n1-2 [JQ1] + Nc1ncn([C@H]2C[C@H](O)[C@@H](CO)O2)c(=O)n1 [Decitabine] (partner 2 µM) | 1 (yes) |
| Cc1sc2c(c1C)C(c1ccc(Cl)cc1)=N[C@@H](CC(=O)OC(C)(C)C)c1nnc(C)n1-2 [JQ1] + CC(C)C[C@H](NC(=O)[C@H](Cc1ccccc1)NC(=O)c1cnccn1)B(O)O [Bortezomib] (partner 0.002 µM) | 0 (no) |

Below: the item to evaluate.
Does the reported relative viability of the following molecule sit strictly below 0.6? Cc1sc2c(c1C)C(c1ccc(Cl)cc1)=N[C@@H](CC(=O)OC(C)(C)C)c1nnc(C)n1-2 [JQ1] + CS(=O)(=O)N1CCN(Cc2cc3nc(-c4cccc5[nH]ncc45)nc(N4CCOCC4)c3s2)CC1 [Pictilisib] (partner 1 µM)
0 (no)
